// data source = PubChem BioAssay (EPA / NIEHS)

Test Details: BSK_CASM3C_SRB: Viability Assessment in the BioMAP Diversity Plus: CASM3C Assay (AID 2283050);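 further: total protein by SRB staining as cytotoxicity measure in parallel cultures; cells exposed to compound for 24 h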
Reported Conditions: primary human coronary artery smooth muscle cells
Activity calls are given as the source filed them. How the source made its calls: active means hit-call score of the fitted dose curve at least 0.9, where 1 is the maximum; inactive means score below 0.9.
Outcomes: t (active), f (inactive)

{"Compound": "COP(=O)(OC)SCn1c(=O)oc2cc(Cl)cnc21", "Qualitative Label": "t"}
{"Compound": "CSc1nnc(C(C)(C)C)c(=O)n1N", "Qualitative Label": "f"}
{"Compound": "CNC(=O)Oc1cccc2c1OC(C)(C)O2", "Qualitative Label": "f"}
{"Compound": "CN1COCN(Cc2cnc(Cl)s2)C1=N[N+](=O)[O-]", "Qualitative Label": "f"}
{"Compound": "COc1cc(OC)nc(Sc2cccc(Cl)c2C(=O)O)n1", "Qualitative Label": "f"}
{"Compound": "CCOC(=O)COc1cc(-c2nn(C)c(OC(F)F)c2Cl)c(F)cc1Cl", "Qualitative Label": "f"}
{"Compound": "CN(C)[C@@H]1C(=O)C(C(N)=O)=C(O)[C@@]2(O)C(=O)C3=C(O)c4c(O)cccc4[C@@](C)(O)[C@H]3[C@H](O)[C@@H]12", "Qualitative Label": "f"}
{"Compound": "CCCCSP(=O)(SCCCC)SCCCC", "Qualitative Label": "t"}
{"Compound": "COc1ccc(C(=CC(=O)N2CCOCC2)c2ccc(Cl)cc2)cc1OC", "Qualitative Label": "f"}
{"Compound": "COP(=O)(OC)C(O)C(Cl)(Cl)Cl (stereo unspecified)", "Qualitative Label": "f"}
{"Compound": "CCOP(=O)(OCC)Oc1cc(C)nc(C(C)C)n1", "Qualitative Label": "f"}

###

Test Details: ATG_PXRE_CIS: Attagene CIS-FACTORIAL HepG2 Assay for human Pregnane X Receptor Element (PXRE) (AID 2282957)
Reported Conditions: HepG2 Attagene CIS-FACTORIAL PXRE reporter, mRNA; actives raise or lower the signal
Activity calls are given as the source filed them. Rule for the calls: active = hit-call score of the fitted dose curve at least 0.9, where 1 is the maximum; inactive = score below 0.9.
Outcomes: active, inactive

{"Compound": "C[N+]1(C)CCCCC1", "Qualitative Label": "inactive"}
{"Compound": "CCOP(=S)(OCC)Oc1ccc([N+](=O)[O-])cc1", "Qualitative Label": "active"}
{"Compound": "CCOC(=O)CC(SP(=O)(OC)OC)C(=O)OCC (stereo not drawn)", "Qualitative Label": "active"}
{"Compound": "C[Si](Cn1cncn1)(c1ccc(F)cc1)c1ccc(F)cc1", "Qualitative Label": "active"}
{"Compound": "CCOP(=S)(OCC)Oc1cc(C)nc(C(C)C)n1", "Qualitative Label": "active"}
{"Compound": "C#CC(C)(C)NC(=O)c1cc(Cl)cc(Cl)c1", "Qualitative Label": "active"}
{"Compound": "CCCCOC(=O)[C@@H](C)Oc1ccc(Oc2ccc(C#N)cc2F)cc1", "Qualitative Label": "active"}
{"Compound": "COc1cc(OC)nc(Sc2cccc(Cl)c2C(=O)O)n1", "Qualitative Label": "inactive"}
{"Compound": "CC(Oc1cccc(Cl)c1)C(=O)O (stereo not drawn)", "Qualitative Label": "inactive"}
{"Compound": "CNC(=O)ON=C(SC)C(=O)N(C)C", "Qualitative Label": "active"}
{"Compound": "CCC(=NOC/C=C/Cl)C1=C(O)CC(C2CCOCC2)CC1=O (stereo not drawn)", "Qualitative Label": "inactive"}
{"Compound": "CCCSP(=O)(OCC)SCCC", "Qualitative Label": "active"}
{"Compound": "CON=C(C(=O)OC)c1ccccc1CON=C(C)c1cccc(C(F)(F)F)c1", "Qualitative Label": "active"}
{"Compound": "Cc1nn(-c2cc(NS(C)(=O)=O)c(Cl)cc2Cl)c(=O)n1C(F)F", "Qualitative Label": "active"}
{"Compound": "CC(C)N(C(=O)SCC(Cl)=C(Cl)Cl)C(C)C", "Qualitative Label": "active"}
{"Compound": "N#CSCSC#N", "Qualitative Label": "active"}
{"Compound": "COP(=O)(OC)C(O)C(Cl)(Cl)Cl (stereo not drawn)", "Qualitative Label": "active"}
{"Compound": "CNC(=O)Oc1cccc2c1OC(C)(C)O2", "Qualitative Label": "active"}
